assay: Selectivity index, ratio of IC50 for mouse 3T3 cells to IC50 for human A549 cells; format: toxicity; conditions: 3T3 cells and A549 cells, read-out: Ratio IC50
metricName: selectivity ratio
One number for each entry.

Data request, read-out selectivity ratio, for Cc1cc(=O)oc2cc(OCCn3cc(-c4ccccc4)nn3)ccc12
0.007

Provide selectivity ratio for all items below, preserving their order.
1. Cc1cc(=O)oc2cc(OCCn3cc(CO)nn3)ccc12
2. Cc1cc(=O)oc2cc(O)ccc12
3. Cc1cc(=O)oc2cc(OCCn3cc(CCN4C(=O)c5ccccc5C4=O)nn3)ccc12
4. Cc1cc(=O)oc2cc(OCCn3cc(COc4cccc5c(C)cc(=O)oc45)nn3)ccc12

1: 0.017; 2: 0.155; 3: 0.007; 4: 0.175

These entries and their values trace back to ChEMBL document CHEMBL5257152.
